- Study system: T1, full-length human GPC3 (human, UniProt P51654 25-554)
- T1 construct: On CHO (DXB11) or SK-HEP-1 (SK-03) transfectants; also used here for the GPC3 on the hepatoma lines HepG2 and HuH-7; also called human glypican 3
- T1 sequence (P51654 25-554 limits assumed): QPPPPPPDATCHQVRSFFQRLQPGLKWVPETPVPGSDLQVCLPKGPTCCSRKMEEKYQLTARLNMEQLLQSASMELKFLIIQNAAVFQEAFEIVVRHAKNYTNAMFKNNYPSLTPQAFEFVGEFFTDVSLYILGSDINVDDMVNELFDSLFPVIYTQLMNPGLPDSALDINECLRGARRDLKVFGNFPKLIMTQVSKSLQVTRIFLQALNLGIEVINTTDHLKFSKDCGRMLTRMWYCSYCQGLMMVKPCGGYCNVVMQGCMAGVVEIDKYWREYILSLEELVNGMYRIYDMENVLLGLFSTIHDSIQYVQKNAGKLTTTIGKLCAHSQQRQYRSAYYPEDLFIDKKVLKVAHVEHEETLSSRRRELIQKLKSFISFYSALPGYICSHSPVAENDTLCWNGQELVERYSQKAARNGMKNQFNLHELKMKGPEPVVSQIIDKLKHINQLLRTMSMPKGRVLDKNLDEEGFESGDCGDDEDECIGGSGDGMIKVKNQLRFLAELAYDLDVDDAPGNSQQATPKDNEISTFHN
- Test: flow cytometry, antibody at 5 µg/mL, HepG2 cells
Assay metric: FACS X-mode value of the histogram

Look at this binder and give its reported FACS X-mode value of the histogram. M6B1 (antibody, V domains shown, Mouse monoclonal from hybridoma) VH: EVQLVESGGDLVKPGGSLKLSCAASGFTFSSYAMSWVRQTPEKRLEWVAAINSNGGTTYYPDTMKDRFTISRDNAKNTLYLQMSSLRSEDSALYYCTRHNGGYENYGWFAYWGQGTLVTVSA VL: DIQMTQSPSSLSASLGGKVTITCKASQDINKNIIWYQHKPGKGPRLLIWYTSTLQPGIPSRFSGSGSGRDYSFSISNLEPEDIATYYCLQYDNLPRTFGGGTKLEIK 34
